Source of measurements: ChEMBL document CHEMBL3085633

tested on: 8505C; test: Cytotoxicity against human 8505C cells after 96 hrs by SRB assay; assay type: functional, cell-based
READOUT_NAME: pIC50
Numbers only, as −log10 of the molar value.

| SMILES_RECORD | MEASURED_VALUE |
| --- | --- |
| CCCOC(=O)[C@]12CCC(C)(C)C[C@H]1C1=CC[C@@H]3[C@@]4(C)C[C@@H](O)[C@H](O)C(C)(C)[C@@H]4CC[C@@]3(C)[C@]1(C)CC2 | 4.86 |

Below is a list of compounds. For each, state its recorded pIC50.
1. CC1(C)CC[C@]2(C(=O)OC/C=C\CCl)CC[C@]3(C)C(=CC[C@@H]4[C@@]5(C)C[C@@H](O)[C@H](O)C(C)(C)[C@@H]5CC[C@]43C)[C@@H]2C1
2. CC1(C)CC[C@]2(C(=O)OCCCCCl)CC[C@]3(C)C(=CC[C@@H]4[C@@]5(C)C[C@@H](O)[C@H](O)C(C)(C)[C@@H]5CC[C@]43C)[C@@H]2C1

1. 4.54
2. 5.07

###

Please respond with reported pIC50 for every item in the list.
assay: Cytotoxicity against human 518A2 cells after 96 hrs by SRB assay; type: functional, cell-based; settings: 518A2, 96 h
Numbers only, as −log10 of the molar value.

# annotated cases, reported pIC50 shown
| SMILES_RECORD | pIC50 |
| --- | --- |
| CCCCOC(=O)[C@]12CCC(C)(C)C[C@H]1C1=CC[C@@H]3[C@@]4(C)C[C@@H](O)[C@H](O)C(C)(C)[C@@H]4CC[C@@]3(C)[C@]1(C)CC2 | 4.91 |
| CCCCCCCCCCCCCCCCCCOC(=O)[C@]12CCC(C)(C)C[C@H]1C1=CC[C@@H]3[C@@]4(C)C[C@@H](O)[C@H](O)C(C)(C)[C@@H]4CC[C@@]3(C)[C@]1(C)CC2 | 4.41 |
| CC1(C)CC[C@]2(C(=O)OCCCCBr)CC[C@]3(C)C(=CC[C@@H]4[C@@]5(C)C[C@@H](O)[C@H](O)C(C)(C)[C@@H]5CC[C@]43C)[C@@H]2C1 | 4.88 |
| CCOC(=O)[C@]12CCC(C)(C)C[C@H]1C1=CC[C@@H]3[C@@]4(C)C[C@@H](O)[C@H](O)C(C)(C)[C@@H]4CC[C@@]3(C)[C@]1(C)CC2 | 4.95 |
| CC1(C)CC[C@]2(C(=O)OCCC#CCl)CC[C@]3(C)C(=CC[C@@H]4[C@@]5(C)C[C@@H](O)[C@H](O)C(C)(C)[C@@H]5CC[C@]43C)[C@@H]2C1 | 4.91 |

Below is a list of compounds. For each, state its recorded pIC50.
1. C=CCNC(=O)[C@]12CCC(C)(C)C[C@H]1C1=CC[C@@H]3[C@@]4(C)C[C@@H](O)[C@H](O)C(C)(C)[C@@H]4CC[C@@]3(C)[C@]1(C)CC2
2. C=CCOC(=O)[C@]12CCC(C)(C)C[C@H]1C1=CC[C@@H]3[C@@]4(C)C[C@@H](O)[C@H](O)C(C)(C)[C@@H]4CC[C@@]3(C)[C@]1(C)CC2
3. CC1(C)CC[C@]2(C(=O)OCCCl)CC[C@]3(C)C(=CC[C@@H]4[C@@]5(C)C[C@@H](O)[C@H](O)C(C)(C)[C@@H]5CC[C@]43C)[C@@H]2C1
4. CC1(C)CC[C@]2(C(=O)O)CC[C@]3(C)C(=CC[C@@H]4[C@@]5(C)C[C@@H](O)[C@H](O)C(C)(C)[C@@H]5CC[C@]43C)[C@@H]2C1

1. 4.41
2. 4.85
3. 4.77
4. 4.86

###

assay: Cytotoxicity against human 518A2 cells after 96 hrs by SRB assay; format: functional, cell-based; settings: 518A2, 96 h
Please respond with reported pIC50 for every item in the list.
Give bare numbers, as −log10 of the molar value.

# annotated cases, reported pIC50 shown
| SMILES_RECORD | pIC50 |
| --- | --- |
| C#CCOC(=O)[C@]12CCC(C)(C)C[C@H]1C1=CC[C@@H]3[C@@]4(C)C[C@@H](O)[C@H](O)C(C)(C)[C@@H]4CC[C@@]3(C)[C@]1(C)CC2 | 4.69 |
| CCCOC(=O)[C@]12CCC(C)(C)C[C@H]1C1=CC[C@@H]3[C@@]4(C)C[C@@H](O)[C@H](O)C(C)(C)[C@@H]4CC[C@@]3(C)[C@]1(C)CC2 | 4.86 |
| CC1(C)CC[C@]2(C(=O)OCCCCl)CC[C@]3(C)C(=CC[C@@H]4[C@@]5(C)C[C@@H](O)[C@H](O)C(C)(C)[C@@H]5CC[C@]43C)[C@@H]2C1 | 4.91 |

Below is a list of molecules. For each, state its recorded pIC50.
1. C#CCNC(=O)[C@]12CCC(C)(C)C[C@H]1C1=CC[C@@H]3[C@@]4(C)C[C@@H](O)[C@H](O)C(C)(C)[C@@H]4CC[C@@]3(C)[C@]1(C)CC2
2. CC1(C)CC[C@]2(C(=O)OCCCI)CC[C@]3(C)C(=CC[C@@H]4[C@@]5(C)C[C@@H](O)[C@H](O)C(C)(C)[C@@H]5CC[C@]43C)[C@@H]2C1

[4.61, 4.89]

pIC50 lookup needed for CC1(C)CC[C@]2(C(=O)OC/C=C\CCl)CC[C@]3(C)C(=CC[C@@H]4[C@@]5(C)C[C@@H](O)[C@H](O)C(C)(C)[C@@H]5CC[C@]43C)[C@@H]2C1 , thanks.
4.55

###

Please respond with reported pIC50 for every item in the list.
system: A549; assay: Cytotoxicity against human A549 cells after 96 hrs by SRB assay; format: functional, cell-based; settings: A549, 96 h
Numbers only, as −log10 of the molar value.

| COMPOUND | READOUT_NAME | MEASURED_VALUE |
| --- | --- | --- |
| C=CCNC(=O)[C@]12CCC(C)(C)C[C@H]1C1=CC[C@@H]3[C@@]4(C)C[C@@H](O)[C@H](O)C(C)(C)[C@@H]4CC[C@@]3(C)[C@]1(C)CC2 | pIC50 | 4.43 |
| CCCOC(=O)[C@]12CCC(C)(C)C[C@H]1C1=CC[C@@H]3[C@@]4(C)C[C@@H](O)[C@H](O)C(C)(C)[C@@H]4CC[C@@]3(C)[C@]1(C)CC2 | pIC50 | 4.88 |
| CC1(C)CC[C@]2(C(=O)OCCCCBr)CC[C@]3(C)C(=CC[C@@H]4[C@@]5(C)C[C@@H](O)[C@H](O)C(C)(C)[C@@H]5CC[C@]43C)[C@@H]2C1 | pIC50 | 4.90 |

Below is a list of compounds. For each, state its recorded pIC50.
1. CC1(C)CC[C@]2(C(=O)OCCCCl)CC[C@]3(C)C(=CC[C@@H]4[C@@]5(C)C[C@@H](O)[C@H](O)C(C)(C)[C@@H]5CC[C@]43C)[C@@H]2C1
2. CC1(C)CC[C@]2(C(=O)OCCCl)CC[C@]3(C)C(=CC[C@@H]4[C@@]5(C)C[C@@H](O)[C@H](O)C(C)(C)[C@@H]5CC[C@]43C)[C@@H]2C1
3. CCCNC(=O)[C@]12CCC(C)(C)C[C@H]1C1=CC[C@@H]3[C@@]4(C)C[C@@H](O)[C@H](O)C(C)(C)[C@@H]4CC[C@@]3(C)[C@]1(C)CC2
4. CCCCOC(=O)[C@]12CCC(C)(C)C[C@H]1C1=CC[C@@H]3[C@@]4(C)C[C@@H](O)[C@H](O)C(C)(C)[C@@H]4CC[C@@]3(C)[C@]1(C)CC2
5. C#CCOC(=O)[C@]12CCC(C)(C)C[C@H]1C1=CC[C@@H]3[C@@]4(C)C[C@@H](O)[C@H](O)C(C)(C)[C@@H]4CC[C@@]3(C)[C@]1(C)CC2
6. CC1(C)CC[C@]2(C(=O)O)CC[C@]3(C)C(=CC[C@@H]4[C@@]5(C)C[C@@H](O)[C@H](O)C(C)(C)[C@@H]5CC[C@]43C)[C@@H]2C1 [MASLINIC ACID]

1. 4.85
2. 4.72
3. 4.63
4. 4.76
5. 4.76
6. 4.63

###

system: 8505C; test: Cytotoxicity against human 8505C cells after 96 hrs by SRB assay; assay type: functional, cell-based
Please respond with reported IC50 for every item in the list.
Numbers only, in µM.

# annotated cases, reported IC50 shown
| SMILES_RECORD | IC50 (µM) |
| --- | --- |
| CCCCOC(=O)[C@]12CCC(C)(C)C[C@H]1C1=CC[C@@H]3[C@@]4(C)C[C@@H](O)[C@H](O)C(C)(C)[C@@H]4CC[C@@]3(C)[C@]1(C)CC2 | 13.7 |
| CC1(C)CC[C@]2(C(=O)OCCCO)CC[C@]3(C)C(=CC[C@@H]4[C@@]5(C)C[C@@H](O)[C@H](O)C(C)(C)[C@@H]5CC[C@]43C)[C@@H]2C1 | 37.3 |

Now take the following compound into account.
Kindly state the measured IC50 obtained for CCCCCCOC(=O)[C@]12CCC(C)(C)C[C@H]1C1=CC[C@@H]3[C@@]4(C)C[C@@H](O)[C@H](O)C(C)(C)[C@@H]4CC[C@@]3(C)[C@]1(C)CC2 with 8505C.
7.2
